Header: IC50 / UniProt:Q13547 / multiple publications

- compound: "Cn1cnc2c(NC3CCCCC3)nc(Nc3ccc(OCCCCCCC(=O)NO)cc3)nc21"
  modifier sign: "="
  IC50 [nM]: 23
- compound: "COc1ccc(CN2CCN(c3ccnc4c3ccn4Cc3ccc(C(=O)NO)cc3)CC2)cc1"
  modifier sign: "="
  IC50 [nM]: 1120
- compound: "CCC(=O)CCCCC[C@H](NC(=O)C1(F)CCN(C)CC1)c1ncc(-c2cc3ccccc3nc2OC)o1"
  modifier sign: "<"
  IC50 [nM]: 100
- compound: "CN(C)CCSc1ccc(C(=O)Nc2cc(-c3cccs3)ccc2N)cc1"
  modifier sign: "<"
  IC50 [nM]: 1000
- compound: "CN1CCC(c2cccc(N3C(=O)N(Cc4ccc(-c5nnc(C(F)F)o5)cn4)C(=O)C3(C)C)c2)CC1"
  modifier sign: ">"
  IC50 [nM]: 10000
- compound: "O=C(NO)c1ccc(Cn2ccc3c(N4CCN(Cc5ccccc5F)CC4)ccnc32)cc1"
  modifier sign: "="
  IC50 [nM]: 600
- compound: "C[C@@H]1CN(c2cnc3c(ccn3Cc3ccc(C(=O)NO)cc3)c2)C[C@H](C)N1CC(C)(C)O"
  modifier sign: "="
  IC50 [nM]: 680
- compound: "O=C(/C=C/c1ccc(-c2ccc(N3CCNCC3)nc2)cc1)NO"
  modifier sign: "="
  IC50 [nM]: 451
- compound: "O=C1CN(c2ccccc2)C(=O)N1Cc1ccc(-c2nnc(C(F)F)o2)cn1"
  modifier sign: ">"
  IC50 [nM]: 10000
- compound: "Nc1ccc(F)cc1NC(=O)c1ccc(CNC(=O)c2cc3ccccc3s2)cc1"
  modifier sign: "="
  IC50 [nM]: 276
- compound: "COc1ccc(NCc2ccc(C(=O)Nc3ccccc3N)cc2)cc1OC"
  modifier sign: "="
  IC50 [nM]: 2000
- compound: "C=CCCCN1CCCC(n2cnc3cc(/C=C/C(=O)NO)ccc32)C1 (centres unmarked)"
  modifier sign: "="
  IC50 [nM]: 100
- compound: "Nc1cc(F)ccc1NC(=O)c1ccc2c(cnn2Cc2cccnc2)c1"
  modifier sign: "<"
  IC50 [nM]: 1000
- compound: "O=C(/C=C/c1ccc(CN2CCC(Cc3ccccc3)CC2)cc1)NO"
  modifier sign: "="
  IC50 [nM]: 37
- compound: "O=C1CN(c2ccccc2)C(=O)N1Cc1ncc(-c2nnc(C(F)F)o2)cn1"
  modifier sign: ">"
  IC50 [nM]: 10000
- compound: "O=C(/C=C/c1ccc([C@@H]2CCCN2CCC2CCCCC2)cc1)NO"
  modifier sign: "="
  IC50 [nM]: 7

====

Header: IC50 / UniProt:Q13547 / multiple publications
endpoint label: IC50 (µM)

- compound: "CC(O)(CO)CN1CCC(c2cnc3c(ccn3Cc3ccc(C(=O)NO)cc3)c2)CC1 (stereo not shown)"
  system under test: "UniProt:Q13547"
  endpoint label: "IC50"
  modifier sign: "="
  readout number: 0.49
- compound: "O=C(NO)c1ccc(Cn2ccc3cc(N4CCC5(CCN(Cc6cccnc6)C5)CC4)cnc32)cc1"
  system under test: "UniProt:Q13547"
  endpoint label: "IC50"
  modifier sign: "="
  readout number: 0.5
- compound: "CC1(C)C(=O)N(Cc2ccc(-c3nnc(C(F)F)o3)cn2)C(=O)N1c1cccc2c1CCN2"
  system under test: "UniProt:Q13547"
  endpoint label: "IC50"
  modifier sign: ">"
  readout number: 10
- compound: "Nc1cc(F)ccc1NC(=O)c1ccc2c(cnn2Cc2ccc(F)c(F)c2)c1"
  system under test: "UniProt:Q13547"
  endpoint label: "IC50"
  modifier sign: "<"
  readout number: 1
